Measured Relative N-demethylase activity, listed per entry for reference.
Target: N-demethylase (Ndm: NdmA and NdmB subunits) (Pseudomonas putida, UniProt H9N289+H9N290)
Construct: lane 3, natural Ndm purified from P. putida CBB5; made in house; host or cells: purified from the natural strain Pseudomonas putida CBB5 (DEAE, Phenyl and Q Sepharose); not recombinant
Sequence (H9N289 1-351): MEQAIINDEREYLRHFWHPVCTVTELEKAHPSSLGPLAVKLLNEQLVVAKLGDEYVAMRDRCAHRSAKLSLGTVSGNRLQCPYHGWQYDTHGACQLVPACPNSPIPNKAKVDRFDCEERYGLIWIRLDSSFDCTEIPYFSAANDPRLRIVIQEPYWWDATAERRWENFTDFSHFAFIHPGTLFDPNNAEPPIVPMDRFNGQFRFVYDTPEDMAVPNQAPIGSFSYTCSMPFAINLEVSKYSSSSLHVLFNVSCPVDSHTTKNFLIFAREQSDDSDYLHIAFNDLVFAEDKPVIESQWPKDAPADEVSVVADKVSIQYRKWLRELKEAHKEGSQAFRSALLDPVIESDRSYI
Sequence (H9N290 1-355): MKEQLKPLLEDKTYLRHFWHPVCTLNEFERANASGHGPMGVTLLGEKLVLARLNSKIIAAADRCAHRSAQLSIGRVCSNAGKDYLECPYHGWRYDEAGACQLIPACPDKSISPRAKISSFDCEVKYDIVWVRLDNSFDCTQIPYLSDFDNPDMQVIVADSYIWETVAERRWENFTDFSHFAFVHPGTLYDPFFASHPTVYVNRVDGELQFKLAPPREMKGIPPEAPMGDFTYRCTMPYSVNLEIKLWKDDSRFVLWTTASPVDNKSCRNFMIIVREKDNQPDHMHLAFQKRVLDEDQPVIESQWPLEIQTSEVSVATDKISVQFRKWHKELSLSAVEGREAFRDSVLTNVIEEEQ
Assay: Methylxanthine N-demethylase activity assay with purified Ndm plus partially purified Ccr
Type: biochemical, Pseudomonas putida CBB5
Settings: substrate conc. 200 μM; relative to paraxanthine
API note: the answer field is a bare number with no unit suffix.

Worked set:
1. Cn1cnc2c1c(=O)[nH]c(=O)n2C: 80.2
2. Cn1c(=O)[nH]c2ncn(C)c2c1=O: 100.0
3. Cn1cnc2[nH]c(=O)[nH]c(=O)c21: 664.2

Lookup: May I ask what Relative N-demethylase activity has been recorded for Cn1c(=O)c2[nH]cnc2n(C)c1=O ?
Found: 14.2

Lookup: May I ask what Relative N-demethylase activity has been recorded for Cn1c(=O)[nH]c(=O)c2[nH]cnc21 ?
Found: 68.9

Lookup: May I ask what Relative N-demethylase activity has been recorded for Cn1c(=O)c2c(ncn2C)n(C)c1=O ?
Found: 48.2

###

biological target: N-demethylase (Ndm: NdmA and NdmB subunits) (Pseudomonas putida, UniProt H9N289+H9N290); construct: lane 3, natural Ndm purified from P. putida CBB5; made in house; host or cells: purified from the natural strain Pseudomonas putida CBB5 (DEAE, Phenyl and Q Sepharose); not recombinant; assay: Methylxanthine N-demethylase activity assay with purified Ndm plus partially purified Ccr; assay type: biochemical, Pseudomonas putida CBB5; details: substrate conc. 500 μM; relative to paraxanthine
Entry flag: Y if Relative N-demethylase activity reaches 60; N if it does not.

Examples from the recorded data:
1) Cn1c(=O)c2[nH]cnc2n(C)c1=O: N
2) Cn1c(=O)c2c(ncn2C)n(C)c1=O: N
3) Cn1c(=O)[nH]c2ncn(C)c2c1=O: Y
4) Cn1c(=O)[nH]c(=O)c2[nH]cnc21: N

Read the next record carefully.
Lookup: Hi, just wondering whether Cn1cnc2[nH]c(=O)[nH]c(=O)c21 shows Relative N-demethylase activity of 60 or higher.
Found: Y

Source: patent US8951752B2
